Target: HDAC7 (Homo sapiens, UniProt Q8WUI4)
Sequence (Q8WUI4 whole entry): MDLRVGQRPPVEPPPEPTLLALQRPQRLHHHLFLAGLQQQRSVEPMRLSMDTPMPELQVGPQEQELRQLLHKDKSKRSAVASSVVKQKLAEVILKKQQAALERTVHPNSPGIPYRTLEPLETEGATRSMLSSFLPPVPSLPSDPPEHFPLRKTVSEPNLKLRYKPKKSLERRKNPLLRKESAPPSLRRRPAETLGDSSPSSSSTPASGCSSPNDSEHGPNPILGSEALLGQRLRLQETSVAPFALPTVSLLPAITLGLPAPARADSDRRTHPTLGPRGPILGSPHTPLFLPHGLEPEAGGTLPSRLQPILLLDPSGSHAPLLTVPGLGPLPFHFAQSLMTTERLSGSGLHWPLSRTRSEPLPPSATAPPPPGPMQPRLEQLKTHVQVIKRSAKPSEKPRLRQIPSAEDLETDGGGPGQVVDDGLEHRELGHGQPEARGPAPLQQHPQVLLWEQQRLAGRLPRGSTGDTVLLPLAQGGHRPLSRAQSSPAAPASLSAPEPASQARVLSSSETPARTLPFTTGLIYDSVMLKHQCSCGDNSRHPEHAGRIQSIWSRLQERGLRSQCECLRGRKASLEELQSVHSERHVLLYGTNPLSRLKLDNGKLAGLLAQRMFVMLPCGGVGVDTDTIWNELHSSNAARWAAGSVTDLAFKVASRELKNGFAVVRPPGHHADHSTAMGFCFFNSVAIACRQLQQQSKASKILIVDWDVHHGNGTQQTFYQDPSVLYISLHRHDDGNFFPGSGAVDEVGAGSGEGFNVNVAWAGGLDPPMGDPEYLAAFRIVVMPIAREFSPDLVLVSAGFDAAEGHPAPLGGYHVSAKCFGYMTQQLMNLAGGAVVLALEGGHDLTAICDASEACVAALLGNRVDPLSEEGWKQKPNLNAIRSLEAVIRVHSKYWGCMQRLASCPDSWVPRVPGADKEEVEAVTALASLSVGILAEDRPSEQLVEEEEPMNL
Test: HDAC biochemical activity measurement (fluorescent substrate deacetylation);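 note: fluorogenic deacetylation assay using acetyl-lysine substrate at 20 µM, enzyme and compound incubated 30 min at 37 °C, then developer added, fluorescence read at 360/460 nm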
Conditions: HDAC7; 37° C. 30 minutes
parameter measured: IC50 HDAC7

1. C/C=C1\NC(=O)c2cc(SCCC)cc(n2)CNC(=O)C[C@@H](/C=C/CCSC(=O)CCCCCCC)OC(=O)[C@H](CC)NC1=O :: no activity
2. C/C=C1\NC(=O)c2nc(cc(SC)n2)CNC(=O)C[C@@H](/C=C/CCSC(C)=O)OC(=O)[C@H](C)NC1=O :: no activity
3. C/C=C1\NC(=O)c2cc(F)cc(n2)CNC(=O)C[C@@H](/C=C/CCSC(=O)CCCCCCC)OC(=O)[C@H](C)NC1=O :: no activity
4. C/C=C1\NC(=O)c2cccc(n2)CNC(=O)C[C@@H](/C=C/CCSC(=O)CCCCCCC)OC(=O)[C@H](Cc2ccccc2)NC1=O :: no activity
5. O=C(CCCCCCC(=O)Nc1ccccc1)NO [SAHA, suberoylanilide hydroxamic acid, reference compound] :: no activity

stdin: Enter reported IC50 HDAC7 observed with HDAC7 (Homo sapiens, UniProt Q8WUI4) for `C/C=C1\NC(=O)c2nc(ccc2F)CNC(=O)C[C@@H](/C=C/CCSC(C)=O)OC(=O)[C@H](CCCCNC(=O)OCC2c3ccccc3-c3ccccc32)NC1=O`
stdout: no activity

stdin: // fetch HDAC7 (Homo sapiens, UniProt Q8WUI4) IC50 HDAC7 for `C/C=C1\NC(=O)c2cccc(n2)CNC(=O)C[C@@H](/C=C/CCSC(=O)CCCCCCC)OC(=O)[C@H](c2ccc(O)cc2)NC1=O`
stdout: no activity

stdin: Kindly state the measured IC50 HDAC7 obtained for `C/C=C1\NC(=O)c2ccc(F)c(n2)CNC(=O)C[C@@H](/C=C/CCSC(=O)CC)OC(=O)[C@H](C(C)C)NC1=O` with HDAC7 (Homo sapiens, UniProt Q8WUI4).
stdout: no activity

stdin: Provide the documented IC50 HDAC7 with HDAC7 (Homo sapiens, UniProt Q8WUI4) as the system for `C/C=C1\NC(=O)c2cccc(n2)CNC(=O)C[C@@H](/C=C/CCSC(=O)CCCCCCC)OC(=O)[C@H](C(C)C)NC1=O`
stdout: no activity

stdin: Checklist item: IC50 HDAC7 tested on HDAC7 (Homo sapiens, UniProt Q8WUI4), entry `CSc1ccc2nc1C(=O)NC(=C(C)C)C(=O)N[C@@H](C(C)C)C(=O)O[C@H](/C=C/CCSC(C)=O)CC(=O)NC2` , value?
stdout: no activity

stdin: HDAC7 (Homo sapiens, UniProt Q8WUI4) / IC50 HDAC7 / `C/C=C1\NC(=O)c2nc(ccc2SC)CNC(=O)C[C@@H](/C=C/CCSC(=O)CC)OC(=O)[C@H](C(C)C)NC1=O` : value?
stdout: no activity

stdin: Provide value of IC50 HDAC7 for this record tested with HDAC7 (Homo sapiens, UniProt Q8WUI4): `C/C=C1\NC(=O)c2cc(SC)cc(n2)CNC(=O)C[C@@H](/C=C/CCSC(=O)CCC)OC(=O)[C@H](C(C)C)NC1=O`
stdout: no activity

stdin: IC50 HDAC7 of `C/C=C1\NC(=O)c2cc(C)cc(n2)CNC(=O)C[C@@H](/C=C/CCSC(C)=O)OC(=O)[C@H](Cc2ccccc2)NC1=O` on HDAC7 (Homo sapiens, UniProt Q8WUI4)?
stdout: no activity

stdin: API: value(readout=IC50 HDAC7, system=HDAC7 (Homo sapiens, UniProt Q8WUI4)) for record `C/C=C1\NC(=O)c2ccc(F)c(n2)CNC(=O)C[C@@H](/C=C/CCSC(=O)CCCCCC)OC(=O)[C@H](C(C)C)NC1=O`
stdout: no activity

stdin: Provide value of IC50 HDAC7 for this record tested with HDAC7 (Homo sapiens, UniProt Q8WUI4): `C/C=C1\NC(=O)c2cc(F)cc(n2)CNC(=O)C[C@@H](/C=C/CCS)OC(=O)[C@H](Cc2cccc3ccccc23)NC1=O`
stdout: no activity
